Please go through the items and note down their cAMP EC50 (assay 1).
- target-system: human GLP-1 receptor (human, UniProt P43220 24-463)
- experiment: cell-based or functional assay
Ends that are not written are not given here. * marks the point of attachment. Palmitoyl = CCCCCCCCCCCCCCCC(=O)*
Number only, in pM; omit the unit.

Task item: If you can, please state the reported cAMP EC50 (assay 1) value of HSQGTFTSDYSKYLDSRRAQDFVQWLVAGGGGGG-NH2 [g315] .
Reply: 27.3

Task item: Now consider HSQGTFTSDYSKYLDSRRAQDFVQWLVAGGPSSGAPPPSK-NH2 [g319] and answer again.
Reply: 36.1

Task item: Cool, now HSQGTFTSDKSRYLDSRSARDFVAWLEAGG (X10 = K(gE-palm); C-terminal amide) [G849]
Reply: 9.07

Task item: Please answer likewise for HSQGTFTSDYSKKLDSERARDFVAWLVAGG (X13 = K(gE-palm) (Lys with palmitoyl on the epsilon nitrogen through a gamma glutamic acid linker); C-terminal amide) [G730]
Reply: 39.5

Task item: Next binder up: HSQGTFTSDYSKYLDSRRAQDFVQWLVAGGSGSGSG-NH2 [g402]
Reply: 85.7

Task item: Record: HSQGTFTSDYSKYLDSRRAQDFVQWLVAGGGGGGK-NH2 [g325]
Reply: 26.1

Task item: And then HSQGTFTSDKSSYLDSRRARDFVAWLEAGG (X10 = K(gE-palm); C-terminal amide) [G796] , what is it?
Reply: 14

Task item: Now consider HGQGTFTSDYSKYLDSKRAQDFVQWLVAGG (X17 = K(gE-palm); C-terminal amide) [G380] .
Reply: 100

Task item: // repeat for HSQGTFTSDYSKYLDSRRAQDFVQWLEAGG-NH2 [g840] and report
Reply: 145

Task item: Moving on to the next binder: HSQGTFTSDYSKYLDSRRAQDFVQWLVAGGKNNRNNIAK-NH2 [g321]
Reply: 27.2

Task item: Next entry: HSQGTFTSDYSKYLDSRRAQDFVQWLVAGGSSGGSS-NH2 [g316]
Reply: 31.4

Task item: And the next one, HSQGTFTSDYSKYLDSRRAQDFVQWLVAGGSSGGSSK-NH2 [g317] ?
Reply: 2630

Task item: Record: HSQGTFTSDYSKYLDSRRAQDFVQWLVAGGPSSGAPPPSK(Palmitoyl)-NH2 [g320]
Reply: 9.38
